Assay: protein stability index of a GFP-peptide fusion (yeast GPS) (PSI 1-4); higher = more stable; sorted into four equal gates, so the index is relative within each strain
Settings: ubr1∆
Categories are assigned from the measured protein stability index using these intervals: lower range: < 2; middle range: ≥ 2 and < 3; upper range: ≥ 3

Which of the defined bands does the recorded protein stability index of DPFSIYGFSNKEYISRL [SNF5] sit within? middle range

Consider next the sequence CSNNKNSIKNVPPILII [SSN2] in the same way. lower range

Consider next the sequence VAIDQDKITLHDEKTLA [SIR4] in the same way. middle range

Consider next the sequence RILAMCVKNHGQSSSIQ [YCS4] in the same way. lower range

Consider next the sequence KADAQREKALNEEAEAR [RPL19A] in the same way. upper range

Consider next the sequence RILKNKAEYLKNCPITQ [RPC40] in the same way. middle range

Consider next the sequence IERDSLVDDENEPSQSL [BRN1] in the same way. upper range

Consider next the sequence LISGAGANPRVLSTFTA [RPN10] in the same way. middle range

Consider next the sequence RFMKGRRSKQLINLAKT [RPC82] in the same way. middle range

Consider next the sequence VKAILMQRHVKVDGKVR [RPS4A] in the same way. middle range

Further cases:
Which of the defined bands does the recorded protein stability index of NTSVLMKLKLMIVYYKD [YCS4] sit within? lower range

Consider next the sequence EPLAFYLEESFTNLGII [RGR1] in the same way. middle range

Consider next the sequence KNQHRAASWYGSFNEMK [RMP1] in the same way. upper range
